assay_notes: NCI Yeast Anticancer Drug Screen. Data for the rad50 strain (AID 155);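 also: 0% = growth of vehicle-only cultures of the same strain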
measurement_conditions: S. cerevisiae rad50 strain growth inhibition; at 50.0 µM; active compounds read high
Compounds without any hit were thinned out: in the full panel of roughly 79,000, 15% have a hit.
Returns YES if the recorded growth inhibition is greater than or equal to 90%, and NO otherwise.

compound: Nc1nnc2nc(C(C(=O)c3ccccc3Cl)c3nc4nnc(N)n4[nH]c3=O)c(=O)[nH]n12
label_value: YES

compound: O=C1C=CC(=O)N1c1cccc([N+](=O)[O-])c1
label_value: YES

compound: CC1(C)CC(O)C(O)C1 (stereo unspecified)
label_value: NO

compound: CCC1=C(c2ccc(OC(C)=O)cc2)Cc2cc(OC(C)=O)ccc21
label_value: NO

compound: O=[N+]([O-])c1ccc(-c2nc(/C=N/N3CCCCC3)cs2)o1
label_value: NO

# check: growth inhibition of O=C1C(CCl)=CS(=O)(=O)c2ccccc21 is greater than or equal to 90%
YES

* * *

assay_notes: NCI Yeast Anticancer Drug Screen. Data for the bub3 strain (AID 167)
measurement_conditions: S. cerevisiae bub3 mutant strain, at 5.0 µM (retest, dose inferred, filed as 0.5), active compounds read high
This is part of a sample that, as a whole, favours compounds with a hit. Of some 79,000 tested, about 15% had one in any assay.
Kindly supply the reported growth inhibition values for the records listed here.
Answers are plain numbers, in %.

// known answers, use as guide
molecule: O=S(=O)(Nc1nccs1)c1ccc(N=Cc2cn(Cc3ccccc3)c3ccccc23)cc1
growth inhibition [%]: 1

molecule: CCCCCCCCCCN
growth inhibition [%]: 7

molecule: OC(c1ccccc1)c1cccc2ccccc12 (stereo unspecified)
growth inhibition [%]: -1

molecule: CCC(Cl)COP(=O)(OC(c1ccc(Cl)c(Cl)c1)P(=O)(OCC(Cl)CC)OCC(Cl)CC)C(CC)CCl (stereo unspecified)
growth inhibition [%]: -2

molecule: Nc1ccc(C(=O)N/C(=C\C=C\c2ccco2)c2nc3c4c(ccc3[nH]2)C(=O)c2ccccc2C4=O)cc1
growth inhibition [%]: 2

Provide the reported growth inhibition of each entry below, same order.
1. O=C(Sc1ccccc1)C1OC12CCCCC2 (stereo unspecified)
2. N#CCc1ccccc1-c1cccc2ccccc12
3. CC(C)NC(=O)CN1C(=O)NC(C)(c2ccccc2)C1=O (stereo unspecified)
4. CC(=O)Nc1cc(F)c2c(c1)Cc1ccccc1-2
5. O=C(C(=Cn1c(=S)[nH]c2ccc([N+](=O)[O-])cc21)C(=O)c1ccccc1)c1ccccc1
6. Oc1ccc(CC2CCC(O)CC2)cc1 (stereo unspecified)
7. O=C(CCCCCCCCCCc1ccccc1)c1ccc(Cl)cc1

-65
3
-3
2
-5
-76
13

* * *

assay_notes: NCI Yeast Anticancer Drug Screen. Data for the bub3 strain (AID 167)
measurement_conditions: S. cerevisiae bub3 mutant strain, at 50.0 µM
This is part of a sample that, as a whole, favours compounds with a hit. Of some 79,000 tested, about 15% had one in any assay. Activity calls are given as the source filed them. Rule as the data show it: active = growth inhibition above about 70%; inactive = the rest.
Pick one and only one: active, inactive

compound: CCCC(=O)N(C(=O)CCC)C1=C(Cl)C(=O)c2ccccc2C1=O
label_value: active
//
compound: COc1cccc(=O)cc1
label_value: active
//
compound: FC(F)(F)c1nc2cc(SSc3cc4nc(C(F)(F)F)[nH]c4cc3Cl)c(Cl)cc2[nH]1
label_value: active

What is the recorded call for this compound in the test? Oc1ccccc1C(c1cc2c(cc1O)OCO2)N1CCOCC1 (stereo not given)
active

Again, but for O=C([O][Sb]([O]C(=O)C(Cl)(Cl)Cl)([c]1ccccc1)([c]1ccccc1)[c]1ccccc1)C(Cl)(Cl)Cl
inactive

* * *

assay_notes: NCI Yeast Anticancer Drug Screen. Data for the mlh1 rad18 strain (AID 175)
measurement_conditions: S. cerevisiae mlh1 rad18 strain growth inhibition; at 50.0 µM (retest, dose inferred, filed as 5.0); active compounds read high
This is part of a sample that, as a whole, favours compounds with a hit. Of some 79,000 tested, about 15% had one in any assay.
Returns criterion met if the recorded growth inhibition is greater than or equal to 30%, and criterion not met otherwise.

Some solved cases for reference:
molecule: CN(C)CCN(C)N=Nc1c(-c2ccc(Cl)cc2)n[nH]c1C(F)(F)F
label_value: criterion met

molecule: CN1CCC(CCC(=O)OC(C)(C)C)(CN2c3ccccc3Sc3ccccc32)C1 (stereo not given)
label_value: criterion met

molecule: O=C(c1cccnc1)N(C1CCCCC1)C1CCCCC1
label_value: criterion not met

# check: growth inhibition of O=[N+]([O-])c1ccccc1NC1CCN(CCCC2(c3ccc(F)cc3)OCCO2)CC1 is greater than or equal to 30%
criterion met

Again, but for CCCCCCCCN(CCCCCCCC)Cc1ccc(Br)cc1
criterion met

* * *

assay_notes: NCI Yeast Anticancer Drug Screen. Data for the mec2-1 strain (AID 157)
measurement_conditions: S. cerevisiae mec2-1 strain, at 50.0 µM, active compounds read high
Experimental: Growth inhibition of yeast strains with defined genetic alterations is measured as a screen for potential anti-cancer activity. Selected strains with alterations in DNA damage repair or cell cycle control were exposed to compounds and growth inhibition was measured relative to vehicle treated controls. The strain used in this assay is mec2-1
Compounds without any hit were thinned out: in the full panel of roughly 79,000, 15% have a hit.
recorded_endpoint: growth inhibition (%)
One number for each entry, in %.

compound: Cc1cc(O)c(C)c(C)c1N=Nc1ccccc1
growth inhibition [%]: 6.3
--
compound: COc1ccc(/C=C/c2cc(OC)c(OC)c(OC)c2)cc1O[Si](C)(C)C(C)(C)C
growth inhibition [%]: -1.75
--
compound: CC[Si](CC)(CC)c1ccc(CCNCCS)s1
growth inhibition [%]: 98.7
--
compound: CCC(=O)NC1=C(Cl)C(=O)c2ccccc2C1=O
growth inhibition [%]: 98.2
--
compound: O=[N+]([O-])c1c(Br)ncn1Cc1ccccc1
growth inhibition [%]: 8.25

Provide the reported growth inhibition of each entry below, same order.
1. Nc1cc(F)c2c(c1F)C(=O)c1cc(F)ccc1-2
2. O=C1/C(=C/c2ccccc2Cl)COc2ccccc21
3. Cc1ccc(S(=O)(=O)OC(C=O)C(O)C(O)COC(c2ccccc2)(c2ccccc2)c2ccccc2)cc1 (stereo not drawn)
4. CC(CN(C)C)C(/C=C/c1ccc(Cl)c(Cl)c1)=N\Nc1ccccc1 (stereo not drawn)
5. Cc1ccc(OS(=O)(=O)c2ccc(Br)cc2)cc1
6. C/C(=N\NC(=S)Nc1ccc(C(=O)O)cc1C)c1ccc2ccccc2n1
7. CCCCCCCCCCCCNC(=O)C[n+]1cccc(C(=O)N(C)C)c1

1: 27.3; 2: 93.9; 3: 84.5; 4: 98.7; 5: 0.05; 6: 97.8; 7: 58

Provide the reported growth inhibition of each entry below, same order.
1. O=C1OC(CCl)CC12CC(CCl)OC2=O (stereo not drawn)
2. NCC(CS)C(=O)NC(CS)C(=O)NC(CS)C(=O)NCCNc1ccc(NCCNC(=O)C(CS)NC(=O)C(CS)NC(=O)C(CN)CS)c2c1C(=O)c1c(O)ccc(O)c1C2=O (stereo not drawn)

[89.7, 70.8]

Provide the reported growth inhibition of each entry below, same order.
1. ON(Cc1ccccc1)C(=S)c1ccccc1
2. CC[C@]1(O)C[C@H]2[C@@H]3CCc4cc(OC)ccc4[C@H]3CC[C@]2(C)[C@H]1O

1. 92.8
2. 48.5

Provide the reported growth inhibition of each entry below, same order.
1. O=C(Cc1nc2ccccc2s1)C(=O)Nc1ccc(Cl)cc1
2. COc1cc(CNC(=O)CCCCCCCCCCSC#N)ccc1O
3. CCCCC(CC)CNc1ncnc2c1cnn2C (stereo not drawn)

[23.1, 85.2, -1.45]

Provide the reported growth inhibition of each entry below, same order.
1. CC(=O)OC1CCC2(C)C(C1)C(OC(C)=O)CC1C3CCC(c4cccc(=O)o4)C3(C)CCC12 (stereo not drawn)
2. Cc1ccc(N2C(=O)CCSC2=S)cc1C
3. Cc1ccc(N=C(N)Nc2ccc(C)cn2)nc1

[86.7, 80.5, 77.9]

Provide the reported growth inhibition of each entry below, same order.
1. COc1ccc(/C=C2\C(=O)N(C)C(=O)c3cc(OC)c(OC)cc32)cc1OC
2. CN1C(OCc2ccccc2)c2c(ccc3c2OCO3)C2C=Cc3cc4c(cc3C21)OCO4 (stereo not drawn)

1: 47.5; 2: 93.2

Provide the reported growth inhibition of each entry below, same order.
1. O=C1C(c2ccc(Br)cc2)=[N+]([O-])c2ccccc21
2. Cc1cc(S(=O)(=O)c2ccc(Cl)cc2)nc(S(=O)(=O)c2ccc(Cl)cc2)c1C#N
3. COc1c2c(cc3c1c(=O)c1ccccc1n3C)OCO2
4. COC(=O)c1ccccc1C=C(c1ccc([N+](=O)[O-])cc1)c1ccc([N+](=O)[O-])cc1
5. Clc1ccc(C2SCc3nc4ccccc4n32)c(Cl)c1 (stereo not drawn)
6. CC1=CC2OC3CC4OC(=O)/C=C/C=C/C(C(C)O)OCC(=O)C(C)CC(=O)OCC2(CC1)C4(C)C31CO1 (stereo not drawn)
7. CN(C)C(=S)/N=c1\sn(C)/c(=N\C(=S)N(C)C)n1C
8. O=[N+]([O-])c1cccc(S(=O)(=O)Cl)c1

[87.3, 87.2, 33.9, 95.8, 99.1, 94, -5.9, 14.9]

Provide the reported growth inhibition of each entry below, same order.
1. Oc1cc(F)ccc1-c1ccc(F)cc1
2. Oc1cc(O)c2c(c1)OC(c1ccc(O)c(O)c1)C(OC1(c3cc(O)c(O)c(O)c3)Oc3cc(O)cc(O)c3C(O)C1O)C2 (stereo not drawn)
3. N#Cc1cc([N+](=O)[O-])ccc1NC(=O)/C(=N/N)C(C(=O)c1ccc(Cl)c(Cl)c1)C1OC(=O)c2ccccc21 (stereo not drawn)
4. N#CCc1ccccc1-c1cccc2ccccc12

[85, -18.2, 92.2, 29.4]

Taken from PubChem BioAssay (NCI).
